Observed CYP3A4 AC50 (half-maximal activity concentration) for CYP3A4 (Homo sapiens, UniProt P08684), reported per entry below.

COMPOUND	TARGET DESC	REPORTED
NS(=O)(=O)c1ccccc1OC(F)(F)F [2-(Trifluoromethoxy)benzenesulfonamide]	CYP3A4 (Homo sapiens, UniProt P08684)	Inactive
Cc1cc(O)cc(C)c1Cl [4-Chloro-3,5-dimethylphenol]	CYP3A4 (Homo sapiens, UniProt P08684)	Inactive
CC(c1ccc(O)cc1)c1ccc(O)cc1 [Bisphenol E]	CYP3A4 (Homo sapiens, UniProt P08684)	Inconclusive inhibitor
CCNc1nc(Cl)nc(NCC)n1 [Simazine]	CYP3A4 (Homo sapiens, UniProt P08684)	Inactive

IN: State CYP3A4 AC50 (half-maximal activity concentration) (CYP3A4 (Homo sapiens, UniProt P08684)) of O=C(OCCOCCOCCOC(=O)c1ccccc1)c1ccccc1 [Triethylene glycol dibenzoate] .
OUT: Inactive

IN: Give the observed CYP3A4 AC50 (half-maximal activity concentration) of CC(C)(C)c1ccc(OC(=O)c2ccccc2O)cc1 [4-tert-Butylphenyl salicylate] for CYP3A4 (Homo sapiens, UniProt P08684).
OUT: Inactive

IN: GET CYP3A4 AC50 (half-maximal activity concentration) | system: CYP3A4 (Homo sapiens, UniProt P08684) | item: Oc1ccc(-c2ccc(O)cc2)cc1 [4,4'-Biphenyldiol]
OUT: Inconclusive inhibitor

IN: Fill: CYP3A4 AC50 (half-maximal activity concentration) (CYP3A4 (Homo sapiens, UniProt P08684)) for this compound OCC(CBr)(CBr)CBr [3-Bromo-2,2-bis(bromomethyl)propanol]
OUT: Inactive

IN: Print CYP3A4 (Homo sapiens, UniProt P08684) CYP3A4 AC50 (half-maximal activity concentration) for CCC(C)c1ccccc1O (stereo not shown) [2-(Butan-2-yl)phenol] .
OUT: Inconclusive inhibitor

IN: Give measured CYP3A4 AC50 (half-maximal activity concentration) for CC(C)c1ccccc1O [2-Isopropylphenol] (CYP3A4 (Homo sapiens, UniProt P08684)).
OUT: Inactive

###

TARGET DESC: human CYP2C9 (Homo sapiens)
Sequence (P11712 whole entry): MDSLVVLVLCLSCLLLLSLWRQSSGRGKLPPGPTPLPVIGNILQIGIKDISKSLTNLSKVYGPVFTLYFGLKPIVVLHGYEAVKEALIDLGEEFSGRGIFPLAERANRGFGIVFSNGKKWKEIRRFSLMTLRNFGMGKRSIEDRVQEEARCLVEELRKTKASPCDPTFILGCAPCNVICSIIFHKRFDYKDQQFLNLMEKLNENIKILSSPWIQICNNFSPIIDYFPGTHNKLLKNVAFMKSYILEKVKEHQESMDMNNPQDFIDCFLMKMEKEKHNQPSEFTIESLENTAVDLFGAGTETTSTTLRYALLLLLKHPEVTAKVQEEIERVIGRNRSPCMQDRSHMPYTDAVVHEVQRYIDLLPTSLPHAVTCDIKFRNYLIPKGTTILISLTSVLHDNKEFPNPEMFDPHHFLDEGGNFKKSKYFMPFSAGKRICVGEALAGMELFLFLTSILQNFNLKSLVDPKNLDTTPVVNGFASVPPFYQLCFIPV
TEST NAME: biochemical
CONDITIONS: CYP2C9 IC50
Counter-ions that a name gives are not always drawn.
PROPERTY: IC50 (µM)
The reply should be a number in µM, with the unit left off.

MOLECULE	TARGET DESC	MEASUREMENT UNIT	REPORTED
Cc1ccc2ccc3cccc4ccc1c2c34 [1-Methylpyrene]	human CYP2C9 (Homo sapiens)	µM	55.4

IN: Tell me measured IC50 for CC#C[C@]1(O)CC[C@H]2[C@@H]3C[C@H](C)C4=CC(=O)CC[C@]4(C)[C@H]3CC[C@@]21C [Dimethisteron] please.
OUT: 24.1

IN: Give IC50 for Cc1c2ccccc2c(C)c2c1ccc1ccccc12 [7,12-Dimethylbenz(a)anthracene]
OUT: 27.3

IN: // Input: O=S1OCC2C(CO1)C1(Cl)C(Cl)=C(Cl)C2(Cl)C1(Cl)Cl (stereo not drawn) [Endosulfan] . Output its IC50 only.
OUT: 37.2

IN: Report measured IC50; entry is Cc1cc(O)c2ccccc2c1O [Menadiol]
OUT: 12.2

IN: State, in one line, measured IC50 of CC(NCCC(c1ccccc1)c1ccccc1)c1ccccc1 (stereo not drawn) [Fendiline hydrochloride]
OUT: 15.5

IN: Provide IC50 value for the following molecule: Cc1cc(C)c(N)cc1C [2,4,5-Trimethylaniline]
OUT: 32.9

IN: Assign IC50 to the following record: Cl[C@H]1[C@H](Cl)[C@@H](Cl)[C@H](Cl)[C@@H](Cl)[C@@H]1Cl [beta-Hexachlorocyclohexane]
OUT: 4.17

IN: Recall and state the measured IC50 for Oc1ccc2[nH]cc(CCCCN3CC=C(c4ccccc4)CC3)c2c1 [Roxindole] .
OUT: 21.2

###

TARGET DESC: human CYP1A2 (Homo sapiens, UniProt P05177)
Sequence (P05177 whole entry): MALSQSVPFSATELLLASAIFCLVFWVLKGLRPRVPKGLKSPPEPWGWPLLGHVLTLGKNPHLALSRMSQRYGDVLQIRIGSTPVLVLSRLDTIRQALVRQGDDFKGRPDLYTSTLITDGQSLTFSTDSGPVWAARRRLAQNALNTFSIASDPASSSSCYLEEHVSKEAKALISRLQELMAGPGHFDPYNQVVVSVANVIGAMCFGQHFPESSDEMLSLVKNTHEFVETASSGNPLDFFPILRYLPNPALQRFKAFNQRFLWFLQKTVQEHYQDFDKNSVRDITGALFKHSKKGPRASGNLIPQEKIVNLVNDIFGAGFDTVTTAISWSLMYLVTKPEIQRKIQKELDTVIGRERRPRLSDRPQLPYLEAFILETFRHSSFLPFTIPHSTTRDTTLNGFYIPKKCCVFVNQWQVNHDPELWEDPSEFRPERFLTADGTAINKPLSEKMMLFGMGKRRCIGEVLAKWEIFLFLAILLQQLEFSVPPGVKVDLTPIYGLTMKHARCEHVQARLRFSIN
CONDITIONS: human
Structures can show the parent of a compound that is named as a salt.
PROPERTY: CYP1A2 Efficacy (in parenthesis)

# count of solved cases: 5
COMPOUND	CYP1A2 Efficacy (in parenthesis)
OC(c1ccc(F)cc1)(c1cncnc1)c1ccccc1Cl (stereo not drawn) [Nuarimol]	49.42 ± 19.58 (-46 ± 6) %
CCCCN1CCCC[C@H]1C(=O)Nc1c(C)cccc1C [Levobupivacaine hydrochloride]	17.38 ± 0 (-62 ± 5) %
CC(C)=CCOc1c2occc2cc2ccc(=O)oc12 [Imperatorin]	0.42 ± 0.17 (-97 ± 12) %
CCOP(=S)(OCC)Oc1ccc(Cl)cc1Cl [Dichlofenthion]	3.07 ± 0.42 (-101 ± 5) %
CCCC(Cn1cncn1)c1ccc(Cl)cc1Cl (stereo not drawn) [Penconazole]	23.57 ± 4.24 (-101 ± 7) %

IN: Give the measured CYP1A2 Efficacy (in parenthesis) for O=S(=O)(Oc1ccc(Cl)cc1)c1ccc(Cl)cc1 [Chlorfenson]
OUT: 3.21 ± 1.48 (-95 ± 14) %

IN: Return CYP1A2 Efficacy (in parenthesis) for the following compound: N#C/C(=C1/SC[C@@H](c2ccc(Cl)cc2Cl)S1)n1ccnc1 [luliconazole, reference compound]
OUT: 0.33 ± 0.09 (-91 ± 7) %

IN: Name the recorded CYP1A2 Efficacy (in parenthesis) of the item Clc1ccc(COC(Cn2ccnc2)c2ccc(Cl)cc2Cl)cc1 (stereo not drawn) [Econazole nitrate] in your answer.
OUT: 1.18 ± 0.6 (-104 ± 2) %

IN: Supply reported CYP1A2 Efficacy (in parenthesis) belonging to this compound: Clc1ccccc1C(c1ccccc1)(c1ccccc1)n1ccnc1 [Clotrimazole]
OUT: 9.92 ± 2.76 (-108 ± 12) %

###

TARGET DESC: human CYP1A2 (Homo sapiens, UniProt P05177)
TEST NAME: biochemical
CONDITIONS: CYP1A2 IC50 (half-maximal inhibitory concentration)
Structures can show the parent of a compound that is named as a salt.
PROPERTY: pIC50
The meaning of pIC50 here: minus log10 of the concentration in molar units.

Look over these answered cases.
COMPOUND	pIC50
CN(C)c1ccc(C(=N)c2ccc(N(C)C)cc2)cc1 [Auramine hydrochloride]	4.60
CC(C)=CCOc1c2occc2cc2ccc(=O)oc12	6.38
CCCC(Cn1cncn1)c1ccc(Cl)cc1Cl (centres unmarked)	4.63

IN: Tell me its pIC50 on human CYP1A2 (Homo sapiens, UniProt P05177): "O=C(Nc1ccc(Cl)c(Cl)c1)C1CC1"
OUT: 6.27

IN: System human CYP1A2 (Homo sapiens, UniProt P05177). Read-out pIC50. Item "c1ccc2c(c1)Nc1ccccc1S2" . Report value.
OUT: 6.01

IN: Retrieve pIC50 on human CYP1A2 (Homo sapiens, UniProt P05177); query CC(C)(C)C(=O)C(Oc1ccc(Cl)cc1)n1ccnc1 (centres unmarked)
OUT: 4.79

IN: # return pIC50 for "Brc1cc2ccccc2c2ccccc12" , test system: human CYP1A2 (Homo sapiens, UniProt P05177)
OUT: 6.49

IN: Report value: pIC50, system: human CYP1A2 (Homo sapiens, UniProt P05177), compound: CC(COc1ccccc1)NC(C)C(O)c1ccc(O)cc1 (centres unmarked) [Isoxsuprine hydrochloride]
OUT: 4.79

IN: Give the observed pIC50 of "Clc1ccc(C(c2ccc(Cl)cc2)C(Cl)(Cl)Cl)cc1" for human CYP1A2 (Homo sapiens, UniProt P05177).
OUT: 5.03

IN: Tell me pIC50 of "c1ccc2c(c1)-c1ccc3ccc4cccc5cc-2c1c3c45" when tested on human CYP1A2 (Homo sapiens, UniProt P05177).
OUT: 6.74

IN: # lookup: human CYP1A2 (Homo sapiens, UniProt P05177) pIC50, key = "COc1c2occc2c(OC)c2c(=O)cc(C)oc12"
OUT: 6.82

IN: Report value only: pIC50, human CYP1A2 (Homo sapiens, UniProt P05177), CCOc1cc(C(C)(C)C)ccc1C1COC(c2c(F)cccc2F)=N1 (centres unmarked)
OUT: 4.71

IN: # return pIC50 for "CN1CCN(CCC(=O)N2c3ccccc3Sc3ccc(C(F)(F)F)cc32)CC1" , test system: human CYP1A2 (Homo sapiens, UniProt P05177)
OUT: 4.53

IN: Write down measured pIC50 (human CYP1A2 (Homo sapiens, UniProt P05177)) for this compound. N#CC(CCc1ccc(Cl)cc1)(Cn1cncn1)c1ccccc1 (centres unmarked)
OUT: 4.45

IN: Report its pIC50 with human CYP1A2 (Homo sapiens, UniProt P05177) as the test system: "Nc1ccc2c(c1)C(=O)c1ccccc1C2=O"
OUT: 6.70

IN: Name the value of pIC50 reported for CC(C)(C)[C@@H](O)[C@@H](Cc1ccc(Cl)cc1)n1cncn1 (racemic) when tested on human CYP1A2 (Homo sapiens, UniProt P05177).
OUT: 4.13

IN: Lab note: human CYP1A2 (Homo sapiens, UniProt P05177) assay, enter pIC50 for CC[N+](CC)(CC(=O)Nc1c(C)cccc1C)Cc1ccccc1 [Denatonium benzoate] here
OUT: 4.41
